# System: T. b. rhodesiense
# assay_info: T. b. rhodesiense growth inhibition (University of Antwerp)
# Type: cell-based, Trypanosoma brucei rhodesiense
# measurement_context: mean of 2 to 5 determinations; read-out: IC50 T. b. rhod
readout: pIC50
By convention, pIC50 is the negative base-10 log of a molar concentration.

Given the entry O=[N+]([O-])c1cn2c(n1)[S+]([O-])CC(Oc1ccc(C(F)(F)F)cn1)C2 (stereo not drawn) [Compound 34] , report its measured pIC50.
6.29

Given the entry O=[N+]([O-])c1cn2c(n1)[S+]([O-])CC(OCc1ccc(OC(F)(F)F)cc1)C2 (stereo not drawn) [Compound 38] , report its measured pIC50.
5.29

Given the entry O=[N+]([O-])c1cn2c(n1)[S+]([O-])CC(Oc1ccc(OC(F)(F)F)cc1)C2 (stereo not drawn) [Compound 36] , report its measured pIC50.
4.57

----------
# Tested on: human lung fibroblasts (MRC-5 cells)
# assay_info: Cytotoxicity toward MRC-5 cells (University of Antwerp)
# Assay type: cell-based
# measurement_context: Homo sapiens, MRC5, cytotoxicity toward human lung fibroblasts
readout: pIC50
By convention, pIC50 is the negative base-10 log of a molar concentration.

Given the entry O=[N+]([O-])c1cn2c(n1)[S+]([O-])CC(OCc1ccc(OC(F)(F)F)cc1)C2 (stereo not shown) , report its measured pIC50.
4.22

Given the entry O=[N+]([O-])c1cn2c(n1)SCC(OCc1ccc(-c3ccc(OC(F)(F)F)cc3)cn1)C2 (stereo not shown) , report its measured pIC50.
4.68

Given the entry O=[N+]([O-])c1cn2c(n1)[S@+]([O-])C[C@@H](OCc1ccc(OC(F)(F)F)cc1)C2 , report its measured pIC50.
4.30

Given the entry O=[N+]([O-])c1cn2c(n1)[S+]([O-])CC(OCc1ccc(OCc3ccccc3)cc1)C2 (stereo not shown) , report its measured pIC50.
4.19
